- target_or_system: bovine brain tubulin (Bos taurus, UniProt P81947+Q6B856)
- Construct: MAP-rich bovine brain tubulin (99% purity), Hela cell tubulin (90% purity); purchased Cytoskeleton (Denver, Colo.); host or cells: bovine brain
- protocol_notes: Competition of [3H]-Probe 1 photolabeling of tubulin
- Format: binding
- condition_context: room temperature; 400-fold molar excess (100 μM) competitor, 2.5 μM tubulin, 0.25 μM radiolabeled Probe 1
measurement_label: reduction of Probe 1 photolabeling of tubulin

- chemical_string: "CN[C@H](C(=O)N[C@H](C(=O)N(C)[C@H](/C=C(\\C)C(=O)O)C(C)C)C(C)(C)C)C(C)(C)c1ccc(C(=O)c2ccccc2)cc1"
  measured_value: "approximately 87%"
- chemical_string: "CN[C@H](C(=O)N[C@H](C(=O)N(C)[C@H](/C=C(\\C)C(=O)O)C(C)C)C(C)(C)C)C(C)(C)c1ccccc1"
  measured_value: "approximately 72%"
- chemical_string: "CC[C@]1(O)C[C@@H]2CN(CCc3c([nH]c4ccccc34)[C@@](C(=O)OC)(c3cc4c(cc3OC)N(C)[C@H]3[C@@](O)(C(=O)OC)[C@H](OC(C)=O)[C@]5(CC)C=CCN6CC[C@]43[C@@H]65)C2)C1"
  measured_value: "approximately 72%"
- chemical_string: "CC[C@H](C)[C@@H]([C@@H](CC(=O)N1CCC[C@H]1[C@H](OC)[C@@H](C)C(=O)N[C@@H](Cc1ccccc1)c1nccs1)OC)N(C)C(=O)[C@@H](NC(=O)[C@H](C(C)C)N(C)C)C(C)C"
  measured_value: "approximately 87%"
